test system: Staphylococcus aureus; assay: Antibacterial activity against erythromycin-susceptible Staphylococcus aureus ATCC 25923; type: functional
measurement kind: MIC (µg/mL)
Give the number; µg/mL is assumed, so skip it.

The recorded MIC for `CC[C@H]1OC(=O)[C@H](C)[C@@H](O[C@H]2C[C@@](C)(OC)[C@@H](OC(=O)NCc3cn(Cc4c(Cl)cccc4Cl)nn3)[C@H](C)O2)[C@H](C)[C@@H](O[C@@H]2O[C@H](C)C[C@H](N(C)C)[C@H]2O)[C@](C)(O)C[C@@H](C)CN(C)[C@H](C)[C@@H](OC(=O)NCc2ccccc2)[C@]1(C)O` is 0.25

The recorded MIC for `CC[C@H]1OC(=O)[C@H](C)[C@@H](O[C@H]2C[C@@](C)(OC)[C@@H](OC(=O)NCc3cn(Cc4ccccc4Cl)nn3)[C@H](C)O2)[C@H](C)[C@@H](O[C@@H]2O[C@H](C)C[C@H](N(C)C)[C@H]2O)[C@](C)(O)C[C@@H](C)CN(C)[C@H](C)[C@H]2OC(=O)O[C@@]21C` is 4

The recorded MIC for `CC[C@H]1OC(=O)[C@H](C)[C@@H](O[C@H]2C[C@@](C)(OC)[C@@H](OC(=O)NCc3cn(Cc4ccccc4Cl)nn3)[C@H](C)O2)[C@H](C)[C@@H](O[C@@H]2O[C@H](C)C[C@H](N(C)C)[C@H]2O)[C@](C)(O)C[C@@H](C)CN(C)[C@H](C)[C@@H](OC(=O)NCc2ccc(OC)cc2)[C@]1(C)O` is 0.03
